# target or system: Methyl-CpG-binding domain protein 4 (Homo sapiens);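 further: MBD4 activity read as fluorescence at 594 nm from cleavage and release of a quenched duplex DNA oligonucleotide, with APE1 coupled to incise the strand and raise turnover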
# condition info: Compound Concentration 1.0 uM, Hit No
# Description: Inhibition of MBD4 by quantifying inhibition of MBD4-mediated cleavage and dissociation of quenched duplex DNA oligonucleotides, measured as fluorescence at 594 nm. To generate a functional strand incision and increase turn-over this assay is coupled to APE1.
Quick rule for you: inhibition at 60% or higher means TRUE, lower means FALSE.

Record excerpt, results attached:
[
  {
    "smiles code": "CCc1cc(Nc2nccc(-c3c(-c4ccc(OC)c(C(=O)Nc5c(F)cccc5F)c4)nc4ccccn34)n2)c(OC)cc1N1CCC(N2CCN(S(C)(=O)=O)CC2)CC1",
    "target or system": "Methyl-CpG-binding domain protein 4 (Homo sapiens)",
    "classification": "FALSE"
  },
  {
    "smiles code": "CC(=O)c1c(C)c2cnc(Nc3ccc(N4CCNCC4)cn3)nc2n(C2CCCC2)c1=O",
    "target or system": "Methyl-CpG-binding domain protein 4 (Homo sapiens)",
    "classification": "FALSE"
  },
  {
    "smiles code": "O[C@]1(C(F)(F)F)CCCC[C@H]1Nc1ccc(F)cc1",
    "target or system": "Methyl-CpG-binding domain protein 4 (Homo sapiens)",
    "classification": "FALSE"
  }
]

Exam item: Does Cc1cccc(-c2[nH]c(CNc3ccccc3F)nc2-c2ccc3ncnn3c2)n1 have a reported inhibition of at least 60%?
Marked response: FALSE

Exam item: In plain terms: is recorded inhibition at least 60% for CN1C(=O)[C@@H](N2CCc3c(nn(Cc4ccccc4)c3Br)C2=O)COc2ccccc21 ?
Marked response: FALSE

Exam item: Decide: inhibition of CNC(=O)Nc1ccc2c(c1)[C@@]1(CC2)OC(=O)N(CC(=O)N(Cc2ccc(F)cc2)[C@@H](C)C(F)(F)F)C1=O >= 60%?
Marked response: TRUE
